This listing pairs compounds with measured IC50.
# STUDY SYSTEM: full-length beta-Catenin (Uniprot ID P35222) (Homo sapiens)
# Construct: 10 nM full-length beta-Catenin (Uniprot ID P35222)
# Sequence (P35222 1-781): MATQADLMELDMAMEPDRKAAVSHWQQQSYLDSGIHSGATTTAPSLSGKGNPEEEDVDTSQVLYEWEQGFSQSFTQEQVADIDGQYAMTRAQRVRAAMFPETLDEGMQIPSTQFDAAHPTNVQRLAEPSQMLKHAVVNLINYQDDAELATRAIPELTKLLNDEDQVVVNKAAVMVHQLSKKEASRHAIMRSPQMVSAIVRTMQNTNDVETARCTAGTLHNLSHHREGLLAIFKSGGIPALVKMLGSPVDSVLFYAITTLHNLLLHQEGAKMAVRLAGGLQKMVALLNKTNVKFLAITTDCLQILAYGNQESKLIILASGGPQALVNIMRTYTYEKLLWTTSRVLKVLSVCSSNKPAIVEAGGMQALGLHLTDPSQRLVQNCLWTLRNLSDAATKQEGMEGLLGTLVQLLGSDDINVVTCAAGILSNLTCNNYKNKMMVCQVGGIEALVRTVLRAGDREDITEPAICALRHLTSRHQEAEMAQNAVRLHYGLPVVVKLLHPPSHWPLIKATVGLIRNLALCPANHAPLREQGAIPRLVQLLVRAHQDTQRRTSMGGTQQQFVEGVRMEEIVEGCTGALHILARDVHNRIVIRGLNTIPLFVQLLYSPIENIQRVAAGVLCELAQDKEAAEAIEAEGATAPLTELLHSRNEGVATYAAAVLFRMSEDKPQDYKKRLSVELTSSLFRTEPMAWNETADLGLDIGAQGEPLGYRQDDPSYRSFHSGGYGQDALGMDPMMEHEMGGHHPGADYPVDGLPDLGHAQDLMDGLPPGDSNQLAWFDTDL
# MEASUREMENT DESCRIPTION: Fluorescence polarization IC50 (beta-catenin / 5FAM-TCF4 10-53 competition)
# Format: binding
# CONDITION DETAILS: fluorescence polarization; read-out: beta-Catenin FP IC50
Kindly answer with a numeric value in nM, unit omitted.

// below: answered compounds
CC(=O)N1CCC[C@]12CC=CCCCC1(CCCC=CCCCOC(=O)N3CC[C@@](C(=O)N[C@@H](Cc4ccsc4)C(=O)N[C@@H](Cc4csc5ccccc45)C(=O)N[C@@H](C)C(N)=O)(C3)NC(=O)[C@H](CC(C)C)NC(=O)[C@H](Cc3ccccc3)NC(=O)[C@H](C)NC(=O)C(C)(C)NC(=O)[C@H](Cc3ccc(F)c(C(=O)O)c3)NC(=O)[C@H](CC(=O)O)NC1=O)NC(=O)[C@H](CC(C)(C)C)NC(=O)[C@H](CC(=O)O)NC2=O (stereo partly drawn); 16
CC(=O)N1CCC[C@]12CC=CCCCC1(CCCC=CCCCCCC[C@@](C)(C(=O)N[C@@H](Cc3ccccc3)C(=O)N[C@@H](Cc3csc4ccccc34)C(=O)NC(Cc3cncn3C)C(N)=O)NC(=O)[C@H](CC(N)=O)NC(=O)[C@H](Cc3ccccc3)NC(=O)[C@H](C)NC(=O)[C@H](C)NC(=O)[C@H](CCC(=O)O)NC(=O)[C@H](CC(=O)O)NC1=O)NC(=O)[C@H](C)NC(=O)[C@H](CC(=O)O)NC2=O (single isomer, unassigned) [I-480]; 176

Attention now turns to another entry.
Report IC50 for CC(=O)N1CCC[C@]12CC=CCCCC1(CCCC=CCCCCCC[C@@](C)(C(=O)N[C@@H](Cc3ccsc3)C(=O)N[C@@H](Cc3csc4ccccc34)C(=O)N[C@H](C(N)=O)[C@@H](C)O)NC(=O)[C@H](CC(C)C)NC(=O)[C@H](Cc3ccccc3)NC(=O)[C@H](C)NC(=O)[C@H](C)NC(=O)[C@H](CC(=O)O)NC(=O)[C@H](CC(=O)O)NC1=O)NC(=O)[C@H](CC(C)(C)C)NC(=O)[C@H](CC(=O)O)NC2=O (stereo partly drawn)
38.5

====

# MEASUREMENT DESCRIPTION: Solubility in PBS
# Type: physicochemical
RECORDED METRIC: Solubility (µM)
// note: answer is a bare numeric in µM

Some entries whose results are on file:
CC(=O)N1CCC[C@]12CC=CCCCC1(CCCC=CCCCOC(=O)N3CC[C@@](C(=O)N[C@@H](Cc4ccccc4Cl)C(=O)N[C@@H](Cc4csc5ccccc45)C(=O)N[C@H](C(N)=O)[C@@H](C)O)(C3)NC(=O)[C@H](CC(C)C)NC(=O)[C@H](Cc3ccccc3)NC(=O)[C@H](C)NC(=O)[C@H](C)NC(=O)[C@H](CC(=O)O)NC(=O)[C@H](CC(=O)O)NC1=O)NC(=O)[C@H](CC(C)(C)C)NC(=O)[C@H](CC(=O)O)NC2=O (stereo partly drawn) [I-1068]; 13
C[C@@H]1NC(=O)[C@H](C)NC(=O)[C@H](CC(=O)O)NC(=O)[C@H](CC(=O)O)NC(=O)C2(CCCC=CCCCOC(=O)N3CC[C@@](C(=O)N[C@@H](Cc4ccccc4)C(=O)N[C@@H](Cc4csc5ccccc45)C(=O)N[C@@H](Cc4c[nH]cn4)C(N)=O)(C3)NC(=O)[C@H](CC(N)=O)NC(=O)[C@H](Cc3ccccc3)NC1=O)CCCC=CC[C@]1(CCCN1C(=O)CN=[N+]=[N-])C(=O)N[C@@H](CC(=O)O)C(=O)N[C@@H](CC(C)(C)C)C(=O)N2 (stereo partly drawn) [I-1055]; 10

Name the recorded Solubility of the item CC[C@@H](C)[C@@H](NC(=O)[C@H](CCC(N)=O)NC(=O)[C@H](Cc1csc2ccccc12)NC(=O)[C@H](Cc1ccccc1)NC(=O)[C@]1(C)CCCCCCC=CCCCC2(CCCC=CC[C@]3(CCCN3C(C)=O)C(=O)N[C@@H](CC(=O)O)C(=O)N[C@@H](CC(C)C)C(=O)N2)C(=O)N[C@@H](CC(=O)O)C(=O)N[C@@H](CCC(=O)O)C(=O)N[C@@H](C)C(=O)N[C@@H](C)C(=O)N[C@@H](Cc2ccccc2)C(=O)N[C@@H](CC(N)=O)C(=O)N1)C(N)=O (stereo partly drawn) [I-735] in your answer.
43

====

# STUDY SYSTEM: full-length beta-Catenin (Uniprot ID P35222) (Homo sapiens, UniProt P35222)
# Construct: 10 nM full-length beta-Catenin (Uniprot ID P35222)
# MEASUREMENT DESCRIPTION: Fluorescence polarization IC50 (beta-catenin / 5FAM-TCF4 10-53 competition)
# Assay type: binding
# CONDITION DETAILS: beta-Catenin FP IC50 (nM), fluorescence polarization
RECORDED METRIC: IC50 (nM)
Give your result in nM as a bare value.

CC(=O)N1CCC[C@]12CC=CCCCC1(CCCC=CCCCOC(=O)N3CC[C@@](C(=O)N[C@@H](Cc4ccsc4)C(=O)N[C@@H](Cc4csc5ccccc45)C(=O)N[C@@H](CCC(N)=O)C(N)=O)(C3)NC(=O)[C@H](CC(C)C)NC(=O)[C@H](Cc3ccccc3)NC(=O)[C@H](C)NC(=O)[C@H](C)NC(=O)[C@H](CC(=O)OCCSSc3ccccc3)NC(=O)[C@H](CC(=O)O)NC1=O)NC(=O)[C@H](CC(C)(C)C)NC(=O)[C@H](CC(=O)O)NC2=O (stereo partly drawn); 849
CC(C)C[C@@H]1NC(=O)[C@H](Cc2ccccc2)NC(=O)[C@H](C)NC(=O)[C@H](C)NC(=O)[C@H](Cc2cccc(C(=O)O)c2)NC(=O)[C@H](CC(=O)O)NC(=O)C2(CCCC=CCCCOC(=O)N3CC[C@@](C(=O)N[C@@H](Cc4ccccc4Cl)C(=O)N[C@@H](Cc4csc5ccccc45)C(=O)N[C@@H](C)C(N)=O)(C3)NC1=O)CCCC=CC[C@]1(CCCN1C(=O)CCl)C(=O)N[C@@H](CC(=O)O)C(=O)N[C@@H](CC(C)(C)C)C(=O)N2 (stereo partly drawn); 189
C[C@@H]1NC(=O)[C@H](C)NC(=O)[C@H](CC(=O)O)NC(=O)[C@H](CC(=O)O)NC(=O)C2(CCCC=CCCCOC(=O)N3CC[C@@](C(=O)N[C@@H](Cc4ccsc4)C(=O)N[C@@H](Cc4csc5ccccc45)C(=O)N[C@@H](Cc4c[nH]cn4)C(N)=O)(C3)NC(=O)[C@H](CCC(N)=O)NC(=O)[C@H](Cc3ccccc3)NC1=O)CCCC=CC[C@]1(CCCN1C(=O)CBr)C(=O)N[C@@H](CC(=O)O)C(=O)N[C@@H](CC(C)(C)C)C(=O)N2 (stereo partly drawn); 94
CC(=O)N1CCC[C@]12CC=CCCCC1(CCCC=CCCCOC(=O)N3CC[C@@](C(=O)N[C@@H](Cc4ccsc4)C(=O)N[C@@H](Cc4csc5ccccc45)C(=O)N[C@@H](CCC(N)=O)C(N)=O)(C3)NC(=O)[C@H](CCC(=O)N3CCN(c4ccncc4)CC3)NC(=O)[C@H](Cc3ccccc3)NC(=O)[C@H](C)NC(=O)[C@H](C)NC(=O)[C@H](CN(CC(=O)O)CC(F)(F)F)NC(=O)[C@H](CC(=O)O)NC1=O)NC(=O)[C@H](CC(C)(C)C)NC(=O)[C@H](CC(=O)O)NC2=O (stereo partly drawn); 8
CC(=O)N1CCC[C@]12CC=CCCCC1(CCCC=CCCCOC(=O)N3CC[C@@](C(=O)N[C@@H](Cc4ccccc4)C(=O)N[C@@H](Cc4csc5ccccc45)C(=O)N[C@@H](CC(=O)N4CCOCC4)C(N)=O)(C3)NC(=O)[C@H](CC(C)C)NC(=O)[C@H](Cc3ccccc3)NC(=O)[C@H](C)NC(=O)[C@H](CCCCNC(=O)c3ccccc3)NC(=O)[C@H](CCC(N)=O)NC(=O)[C@H](CC(=O)O)NC1=O)NC(=O)[C@H](CC1CCCCC1)NC(=O)[C@H](CC(N)=O)NC2=O (stereo partly drawn); 1730

As a next step, examine the molecule that follows.
Name the recorded IC50 of the molecule listed here: C[C@@H]1NC(=O)[C@H](C)NC(=O)[C@H](CC(=O)O)NC(=O)[C@H](CC(=O)O)NC(=O)C2(CCCC=CCCCOC(=O)N3CC[C@@](C(=O)N[C@@H](Cc4ccsc4)C(=O)N[C@@H](Cc4csc5ccccc45)C(=O)N[C@@H](Cc4c[nH]cn4)C(N)=O)(C3)NC(=O)[C@H](CCC(N)=O)NC(=O)[C@H](Cc3ccccc3)NC1=O)CCCC=CC[C@]1(CCCN1C(=O)Oc1ccccc1)C(=O)N[C@@H](CC(=O)O)C(=O)N[C@@H](CC(C)(C)C)C(=O)N2 (stereo partly drawn)
185
